molecular target: Human 5-HT1A Receptor (Homo sapiens)
Sequence (P08908 whole entry): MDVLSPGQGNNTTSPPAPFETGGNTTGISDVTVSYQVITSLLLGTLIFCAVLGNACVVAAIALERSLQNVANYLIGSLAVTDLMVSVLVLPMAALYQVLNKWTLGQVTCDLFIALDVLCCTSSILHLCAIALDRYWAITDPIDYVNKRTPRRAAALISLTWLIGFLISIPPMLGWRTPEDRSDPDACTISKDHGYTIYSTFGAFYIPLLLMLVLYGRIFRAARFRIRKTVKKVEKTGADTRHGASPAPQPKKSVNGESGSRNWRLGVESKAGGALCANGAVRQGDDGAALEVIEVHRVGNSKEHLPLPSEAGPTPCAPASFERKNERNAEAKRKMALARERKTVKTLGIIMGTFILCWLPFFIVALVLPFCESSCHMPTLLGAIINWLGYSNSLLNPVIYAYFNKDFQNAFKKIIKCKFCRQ
pKi: −log10 of the molar value. Counter-ions that a name gives are not always drawn.
Binary call on pKi: 1 (yes) from 6 upward, 0 (no) beneath that.

Past entries and their recorded results:
CCC(C)N(C[C@H]1CCc2[nH]c3ccc(F)cc3c2C1)C[C@H]1COc2ccc3nc(C)ccc3c2O1 (stereo partly drawn) [Example 62, monohydrochloride monohydrate] ... 0 (no)
CCCN(C[C@@H]1CCc2[nH]c3ccc(F)cc3c2C1)C[C@H]1COc2ccc3nc(C)ccc3c2O1 [Example 54, dihydrochloride dihydrate] ... 1 (yes)
Cc1ccc2c3c(ccc2n1)OC[C@H](CN(C)C[C@H]1CCc2c(c4cc(F)ccc4n2C)C1)O3 [Example 68, monohydrochloride monohydrate] ... 0 (no)
Cc1ccc2c3c(ccc2n1)OC[C@H](CNCC1CCc2sc4ccccc4c2C1)O3 (single isomer, unassigned) [32 diastereomer 2] ... 1 (yes)

Enquiry: API: above_or_equal(metric=pKi, cutoff=6) for item Cc1ccc2c3c(ccc2n1)OC[C@H](CNC[C@H]1CCc2[nH]c4ccc(C#N)cc4c2C1)O3.Cl.Cl [Example 14, dihydrochloride]
Return: 1 (yes)

---

Form: system (serotonin transporter (Rattus norvegicus, UniProt P31652)), quantity (pIC50), values below.
pIC50 field: float, defined as -log10 of concentration (mol/L).

Look over these answered cases.
Cc1ccc2c3c(ccc2n1)OC[C@H](CNC[C@H]1CCc2c(c4cc(F)ccc4n2C)C1)O3 [Example 7] ... 8.11
Cc1ccc2c3c(ccc2n1)OC[C@H](CNC[C@H]1CCc2[nH]c4ccc(F)cc4c2C1)O3 [Example 3] ... 8.18

Enquiry: GET /values?readout=pIC50&item= Cc1ccc2c3c(ccc2n1)OC[C@H](CNC[C@H]1CCc2[nH]c4c(F)cc(F)cc4c2C1)O3.Cl.Cl [Example 10, dihydrochloride]
Return: 7.95

---

Biological target: Human 5-HT1A Receptor (Homo sapiens)
Construct: expressed in transfected cells; host or cells: CHO cells
Test: cAMP RIA in human 5-HT1A receptor cell line
Assay type: cell-based
Conditions: superscript c; forskolin stimulated cAMP, CHO cells; read-out: c-AMP, (Emax)^c
Protocol: Stably transfected CHO cells were grown in DMEM containing 10% heat inactivated FBS and non-essential amino acids. The cells were plated at a density of 10^6 cells per well in a 96 well plate and incubated for 2 days in a CO2 incubator. […] Compounds shown to have no agonist activities were further analyzed for ability to reverse agonist activity. […] In the initial screen, percent inhibition of forskolin stimulated cAMP was measured. […]
Counter-ions that a name gives are not always drawn.
Readings of Emax for the listed compounds

Enquiry: GET /values?readout=Emax&item= Cc1ccc2c3c(ccc2n1)OC[C@H](CN(CC1CC1)CC1CCc2[nH]c4ccc(F)cc4c2C1)O3 (stereo partly drawn) [Example 52, dihydrochloride dihydrate]
Return: 70%

Enquiry: What about this compound? Cc1ccc2c3c(ccc2n1)OC[C@H](CN(CC1CCc2[nH]c4ccc(F)cc4c2C1)C1CCC1)O3 (stereo partly drawn) [Example 53, dihydrochloride dihydrate]
Return: 68%

Enquiry: What about this compound? Cc1ccc2c3c(ccc2n1)OC[C@H](CN(C[C@@H]1CCc2[nH]c4ccc(F)cc4c2C1)C1CCC1)O3 [Example 56, dihydrochloride dihydrate]
Return: 69%

---

Form: system (h-5-HT-T (Homo sapiens)), quantity (IC50), values below.
Structures can show the parent of a compound that is named as a salt.
Response body: numeric value in nM, unit text excluded.

Look over these answered cases.
CCC(C)N(C[C@H]1CCc2[nH]c3ccc(F)cc3c2C1)C[C@H]1COc2ccc3nc(C)ccc3c2O1 (stereo partly drawn) [Example 62, monohydrochloride monohydrate] ... 730
Cc1ccc2c3c(ccc2n1)OC[C@H](CN(C[C@@H]1CCc2[nH]c4ccc(F)cc4c2C1)C1CCC1)O3 [Example 56, dihydrochloride dihydrate] ... 18.1
CCCN(CC1CCc2[nH]c3ccc(F)cc3c2C1)C[C@H]1COc2ccc3nc(C)ccc3c2O1 (stereo partly drawn) [Example 51, dihydrochloride dihydrate] ... 22.3
CCN(CC1CCc2[nH]c3ccc(F)cc3c2C1)C[C@H]1COc2ccc3nc(C)ccc3c2O1 (stereo partly drawn) [Example 50, dihydrochloride dihydrate] ... 5.73
Cc1ccc2c3c(ccc2n1)OC[C@H](CN[C@H]1CCc2c([nH]c4ccc(F)cc24)C1)O3 (single isomer, unassigned) [Example 48, dihydrochloride] ... 31.9
Cc1ccc2c3c(ccc2n1)OC[C@H](CN(CC1CC1)CC1CCc2[nH]c4ccc(F)cc4c2C1)O3 (stereo partly drawn) [Example 52, dihydrochloride dihydrate] ... 19.5
Cc1ccc2c3c(ccc2n1)OCC(CN(CC1CCc2c(c4cc(F)ccc4n2C)C1)C(C)C)O3 (stereo not drawn) [Example 65, monohydrochloride monohydrate] ... 403
Cc1ccc2c3c(ccc2n1)OC[C@H](CNCC1CCc2c(sc4cc(F)ccc24)C1)O3 (single isomer, unassigned) [39 diastereomer 1] ... 2060
Cc1ccc2c3c(ccc2n1)OC[C@H](CN(C[C@@H]1CCc2[nH]c4ccc(F)cc4c2C1)C1CCCCC1)O3 [Example 60, monohydrochloride monohydrate] ... 995
Cc1ccc2c3c(ccc2n1)OC[C@H](CNC1CCc2c([nH]c4ccccc24)C1)O3.Cl.Cl (mixture of isomers) [Example 43, dihydrochloride] ... 19.3

Enquiry: GET /values?readout=IC50&item= Cc1ccc2c3c(ccc2n1)OC[C@H](CN(C)C[C@H]1CCc2c(c4cc(F)ccc4n2C)C1)O3 [Example 68, monohydrochloride monohydrate]
Return: 15.2

Enquiry: What about this molecule? Cc1ccc2c3c(ccc2n1)OC[C@H](CNCC[C@H]1CCc2[nH]c4ccc(F)cc4c2C1)O3 (single isomer, unassigned) [Example 42, dihydrochloride]
Return: 2.8
